Parameter: cytotoxicity at 48 h, 10 µM. Scope: all listed entries.
- PROTOCOL SUMMARY: Cytotoxicity against human PC3 cells at 10 uM measured after 48 hrs by sulforhodamine B assay relative to control
- Type: cell-based, PC-3
- REPORTED CONDITIONS: read-out: INH
Give just the numeric value; % need not be written.

In [3]: df
Out[3]:
                                   compound  value_reported
0  COc1nc2ccc(Br)cc2cc1C(c1ccccc1)n1cc(C2CC2)nn1 (stereo not given)            22.6
1  COc1nc2ccc(Br)cc2cc1C(c1ccccc1)n1cc(-c2ccccc2F)nn1 (stereo not given)            13.4
2  COc1nc2ccc(Br)cc2cc1C(c1ccccc1)n1cc(-c2ccc(F)cc2)nn1 (stereo not given)            16.4
3  COc1nc2ccc(Br)cc2cc1C(c1ccccc1)n1cc(CCCO)nn1 (stereo not given)            14.7
4  COc1nc2ccc(Br)cc2cc1C(c1ccccc1)n1cc(-c2cccc(F)c2)nn1 (stereo not given)            14.6

Now consider a different compound.
Q: Find the recorded cytotoxicity at 48 h, 10 µM belonging to COc1nc2ccc(Br)cc2cc1C(c1ccccc1)n1cc(-c2ccc(Br)cc2)nn1 (stereo not given) and report it.
A: 7.43

---

- PROTOCOL SUMMARY: Cytotoxicity against human HEK293 cells at 10 uM measured after 48 hrs by sulforhodamine B assay relative to control
- Type: cell-based
- REPORTED CONDITIONS: read-out: INH
Parameter: cytotoxicity at 48 h, 10 µM. Scope: all listed entries.

Answered examples (5):
>>> print(df.to_string())
                                   compound        experimental_endpoint  value_reported
0  CCOC(=O)c1cn(C(c2ccccc2)c2cc3cc(Br)ccc3nc2OC)nn1 (stereo not given)  cytotoxicity at 48 h, 10 µM              2%
1  COc1nc2ccc(Br)cc2cc1C(c1ccccc1)n1cc(-c2ccc(OC(F)(F)F)cc2)nn1 (stereo not given)  cytotoxicity at 48 h, 10 µM            5.8%
2  COc1nc2ccc(Br)cc2cc1C(c1ccccc1)n1cc(-c2ccccc2)nn1 (stereo not given)  cytotoxicity at 48 h, 10 µM           8.25%
3  CCCc1cn(C(c2ccccc2)c2cc3cc(Br)ccc3nc2OC)nn1 (stereo not given)  cytotoxicity at 48 h, 10 µM           0.85%
4  CCCCCCCCc1cn(C(c2ccccc2)c2cc3cc(Br)ccc3nc2OC)nn1 (stereo not given)  cytotoxicity at 48 h, 10 µM           14.6%

Q: Find the recorded cytotoxicity at 48 h, 10 µM belonging to COc1nc2ccc(Br)cc2cc1C(c1ccccc1)n1cc(CCCO)nn1 (stereo not given) and report it.
A: 27.4%

Q: Param item: COc1nc2ccc(Br)cc2cc1C(c1ccccc1)n1cc(CCO)nn1 (stereo not given)
A: 4.54%

Q: Param item: CCCCCCCc1cn(C(c2ccccc2)c2cc3cc(Br)ccc3nc2OC)nn1 (stereo not given)
A: 0.17%

Q: Param item: COc1nc2ccc(Br)cc2cc1C(c1ccccc1)n1cc(-c2ccccc2F)nn1 (stereo not given)
A: 3.97%

Q: Param item: COc1nc2ccc(Br)cc2cc1C(c1ccccc1)n1cc(CCCCCO)nn1 (stereo not given)
A: 7.96%

---

- PROTOCOL SUMMARY: Cytotoxicity against human PC3 cells at 10 uM measured after 48 hrs by sulforhodamine B assay relative to control
- Assay type: cell-based, PC-3
- REPORTED CONDITIONS: read-out: INH
Parameter threshold = 4%. Response is 1 when cytotoxicity at 48 h, 10 µM meets or exceeds it, else -1.

// known answers, use as guide
>>> df
                                   molecule  class_assignment
0  CCCCCc1cn(C(c2ccccc2)c2cc3cc(Br)ccc3nc2OC)nn1 (stereo not given)                 1
1  CCCCCCCc1cn(C(c2ccccc2)c2cc3cc(Br)ccc3nc2OC)nn1 (stereo not given)                 1

Q: Item COc1nc2ccc(Br)cc2cc1C(c1ccccc1)n1cc(-c2ccccc2C(F)(F)F)nn1 (stereo not given) with cytotoxicity at 48 h, 10 µM of 4% or above?
A: 1

Q: Param item: COc1nc2ccc(Br)cc2cc1C(c1ccccc1)n1cc(-c2ccc(OC(F)(F)F)cc2)nn1 (stereo not given)
A: 1

Q: Param item: CCCCCCCCc1cn(C(c2ccccc2)c2cc3cc(Br)ccc3nc2OC)nn1 (stereo not given)
A: -1

---

- PROTOCOL SUMMARY: Cytotoxicity against human SKOV3 cells at 10 uM measured after 48 hrs by sulforhodamine B assay relative to control
- Format: cell-based, SK-OV-3
- REPORTED CONDITIONS: read-out: INH
Parameter: cytotoxicity at 48 h, 10 µM. Scope: all listed entries.
Give just the numeric value; % need not be written.

Answered examples (8):
                                   compound        experimental_endpoint  value_reported
0  COc1nc2ccc(Br)cc2cc1C(c1ccccc1)n1cc(-c2ccccc2)nn1 (centres undefined)  cytotoxicity at 48 h, 10 µM            13.7
1  COc1nc2ccc(Br)cc2cc1C(c1ccccc1)n1cc(-c2cccc(F)c2)nn1 (centres undefined)  cytotoxicity at 48 h, 10 µM            12.7
2  CCCCCCCc1cn(C(c2ccccc2)c2cc3cc(Br)ccc3nc2OC)nn1 (centres undefined)  cytotoxicity at 48 h, 10 µM            10.5
3  CCCCc1cn(C(c2ccccc2)c2cc3cc(Br)ccc3nc2OC)nn1 (centres undefined)  cytotoxicity at 48 h, 10 µM            11.1
4  CCCCCCCCc1cn(C(c2ccccc2)c2cc3cc(Br)ccc3nc2OC)nn1 (centres undefined)  cytotoxicity at 48 h, 10 µM            2.06
5  COc1nc2ccc(Br)cc2cc1C(c1ccccc1)n1cc(C2CC2)nn1 (centres undefined)  cytotoxicity at 48 h, 10 µM            3.52
6  COc1nc2ccc(Br)cc2cc1C(c1ccccc1)n1cc(-c2ccccc2C(F)(F)F)nn1 (centres undefined)  cytotoxicity at 48 h, 10 µM            9.55
7  COc1nc2ccc(Br)cc2cc1C(c1ccccc1)n1cc(CCCO)nn1 (centres undefined)  cytotoxicity at 48 h, 10 µM            13.8

Q: Find the recorded cytotoxicity at 48 h, 10 µM belonging to CCCCCc1cn(C(c2ccccc2)c2cc3cc(Br)ccc3nc2OC)nn1 (centres undefined) and report it.
A: 10.5

Q: Param item: CCCCCCc1cn(C(c2ccccc2)c2cc3cc(Br)ccc3nc2OC)nn1 (centres undefined)
A: 7.17

Q: Param item: COc1nc2ccc(Br)cc2cc1C(c1ccccc1)n1cc(CO)nn1 (centres undefined)
A: 3.23

Q: Param item: COc1nc2ccc(Br)cc2cc1C(c1ccccc1)n1cc(-c2ccc(Br)cc2)nn1 (centres undefined)
A: 13.4

Q: Param item: COc1nc2ccc(Br)cc2cc1C(c1ccccc1)n1cc(-c2ccc(F)cc2)nn1 (centres undefined)
A: 14.3

---

- PROTOCOL SUMMARY: Cytotoxicity against human PC3 cells at 10 uM measured after 48 hrs by sulforhodamine B assay relative to control
- Assay type: cell-based, PC-3
- REPORTED CONDITIONS: read-out: INH
Parameter: cytotoxicity at 48 h, 10 µM. Scope: all listed entries.
Give just the numeric value; % need not be written.

>>> df
                                   molecule  value_reported
0  CCCc1cn(C(c2ccccc2)c2cc3cc(Br)ccc3nc2OC)nn1 (centres undefined)             8.3
1  COc1nc2ccc(Br)cc2cc1C(c1ccccc1)n1cc(CO)nn1 (centres undefined)            4.65
2  CCOC(=O)c1cn(C(c2ccccc2)c2cc3cc(Br)ccc3nc2OC)nn1 (centres undefined)            16.1

Q: Find the recorded cytotoxicity at 48 h, 10 µM belonging to CCCCCCc1cn(C(c2ccccc2)c2cc3cc(Br)ccc3nc2OC)nn1 (centres undefined) and report it.
A: 2.32

---

Parameter: cytotoxicity at 48 h, 10 µM. Scope: all listed entries.
- PROTOCOL SUMMARY: Cytotoxicity against human HEK293 cells at 10 uM measured after 48 hrs by sulforhodamine B assay relative to control
- Format: cell-based
- REPORTED CONDITIONS: read-out: INH
Give just the numeric value; % need not be written.

Answered examples (5):
In [3]: df
Out[3]:
                                   molecule  value_reported
0  CCCCc1cn(C(c2ccccc2)c2cc3cc(Br)ccc3nc2OC)nn1 (centres undefined)           -3.47
1  COc1nc2ccc(Br)cc2cc1C(c1ccccc1)n1cc(-c2ccccc2C(F)(F)F)nn1 (centres undefined)            14.3
2  COc1nc2ccc(Br)cc2cc1C(c1ccccc1)n1cc(-c2cccc(F)c2)nn1 (centres undefined)            6.84
3  COc1nc2ccc(Br)cc2cc1C(c1ccccc1)n1cc(-c2ccc(F)cc2)nn1 (centres undefined)            4.04
4  COc1nc2ccc(Br)cc2cc1C(c1ccccc1)n1cc(CO)nn1 (centres undefined)            11.5

Q: Find the recorded cytotoxicity at 48 h, 10 µM belonging to COc1nc2ccc(Br)cc2cc1C(c1ccccc1)n1cc(C2CC2)nn1 (centres undefined) and report it.
A: 8.22

Q: Param item: CCCCCCc1cn(C(c2ccccc2)c2cc3cc(Br)ccc3nc2OC)nn1 (centres undefined)
A: -3.17

Q: Param item: CCCCCc1cn(C(c2ccccc2)c2cc3cc(Br)ccc3nc2OC)nn1 (centres undefined)
A: -2

Q: Param item: COc1nc2ccc(Br)cc2cc1C(c1ccccc1)n1cc(-c2ccc(Br)cc2)nn1 (centres undefined)
A: 6.28

Where do these numbers come from? They come from ChEMBL document CHEMBL4396974.
